# test_description: Metabolic stability in cryopreserved human hepatocytes assessed as O-dealkylation at 1 uM incubated for 4 hrs
# Format: ADME, cell-based, Hepatocyte
quantity_name: Drug metabolism

Study these solved cases before continuing.
O=C(COc1cccc2c1C(=O)N(C1CCC(=O)NC1=O)C2=O)NCCOCCOCCNC(=O)COc1c(-c2csc(N3CCOCC3)n2)ccc(F)c1F (stereo unspecified)    Metabolite_Detected
O=C(COc1c(-c2csc(N3CCOCC3)n2)ccc(F)c1F)NCCCCCCCCNc1cccc2c1C(=O)N(C1CCC(=O)NC1=O)C2=O (stereo unspecified)    Metabolite_Detected
Oc1c(-c2csc(N3CCOCC3)n2)ccc(F)c1F    Metabolite_Detected
O=C(COc1c(-c2csc(N3CCOCC3)n2)ccc(F)c1F)NCCOCCOCCNc1cccc2c1C(=O)N(C1CCC(=O)NC1=O)C2=O (stereo unspecified)    Metabolite_Detected
Cc1ncsc1-c1ccc([C@H](C)NC(=O)[C@@H]2C[C@@H](O)CN2C(=O)[C@@H](NC(=O)COCCOCCNC(=O)COc2c(-c3csc(N4CCOCC4)n3)ccc(F)c2F)C(C)(C)C)cc1    Metabolite_Detected

Turning now to a further record.
For reference, reported Drug metabolism for O=C(COc1cccc2c1C(=O)N(C1CCC(=O)NC1=O)C2=O)NCCCCCCCCNC(=O)COc1c(-c2csc(N3CCOCC3)n2)ccc(F)c1F (stereo unspecified) stands at Metabolite_Detected
